System: PXR:RXRa (NR concentration 270 nM, RXRa partner concentration 90 nM)
protocol_summary: PBM binding z-score (relative to random genomic background probes); higher = stronger binding; sequences stand for … in GC…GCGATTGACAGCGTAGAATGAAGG
Measured PBM binding z-score of individual entries
quantity_measured: PBM binding z-score

* CTACCAAGGTGAACAAGGTCGTCGATTACTATTC | 2.61
* AGAATGAGGTTACCAAAGATCAGCGAAACGCTTG | 1.32
* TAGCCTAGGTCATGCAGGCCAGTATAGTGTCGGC | 1.77
* TCGAGTAGGTTAGGGGCATTCAAAATGGCGTCGA | 0.792
* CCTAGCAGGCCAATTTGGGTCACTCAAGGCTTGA | 1.12
* TCATATAGGTAATACAGGTGAAGGTCGGCATCTA | 1.16
* CCTTACGGGTCACTCCAGGTTACAGCATCGGAGT | 4.66
* CCTGCTAGGTCAATGTTCAGCTAAAGCAGCTCGC | 0.795
* GCGACAGGGGCATCAGCAGGTTACCATAACTTAA | 0.643
* CCGAGTAGGTTATGGGGCATTCCGGCAACGGTGA | -0.218
* CCTACTGGGCCAACAGGTCATTGATATCAACGTT | 1.92
* GTACCATGGTGAATAGGTCGTTGATGAGTAGGCG | 0.151
* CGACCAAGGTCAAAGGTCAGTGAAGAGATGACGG | 7.16
* CCTAGTAGGTCAGGAGGTCACACACCGGATATGA | 4.94
* GGATCGAGGGCAAGTTGATAGCAGAGTTTGATGG | 0.76
* GCTGCTAGGTCAACTGATGGTCAGCAAAAGCTCG | 1.68
* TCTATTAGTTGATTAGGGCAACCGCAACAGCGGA | 0.281
* ATCTCTAGGTAAAAATAGTTCAGTGAATGCAAAT | 0.922
* AGAACGATGGCACGCTGAGTTGATAGCAGAGTAG | -0.552
* CAGCCTAGATCAGGGCCAGTATAGGAGGAACGTT | -0.797
* GCTATTAGTTGAAAGGGCAACCCAATGATTCTCG | 0.791
* TTATCAAGGTGAGCTGAGGTCGTTGATCCAACTC | 4.8
* CAAACTAGGTCACGAAAGGTCAATGTCGAATGAC | 6.78
* TATAGCAGGCCAGAGGGTCACTCAAGAGGTACGG | 1.73
* CCGACTGGGGCATAAGGATACCATAAGCCAGCCC | -0.797
* TAGCCTAGGTCACTGGGCCAGTATAGTACGCATC | 1.32

====

Tested on: LXRa:RXRa (NR concentration 270 nM, RXRa partner concentration 90 nM)
protocol_summary: PBM binding z-score (relative to random genomic background probes); higher = stronger binding; sequences stand for … in GC…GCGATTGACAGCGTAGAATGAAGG
quantity_measured: PBM binding z-score

* TCTAGTAGATCAATAGAGGTTAAGAAAGTGCGCT | 3.79
* GCTTACGGGTCTAAGGTTATAGCATGAATAGAAT | 0.664
* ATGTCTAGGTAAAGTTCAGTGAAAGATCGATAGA | 1.74
* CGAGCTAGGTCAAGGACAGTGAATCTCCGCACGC | 2.03
* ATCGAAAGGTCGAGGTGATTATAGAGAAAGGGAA | 3.62
* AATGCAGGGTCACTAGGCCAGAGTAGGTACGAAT | 4.62
* AGAACGAGGGCATTGAGTTGATAGCACGGGTGGC | 0.491
* ACTAGCAGGCCAAGGCTCACTCAAGATTAGTCCG | -0.377
* ATCTCTCGGTAACCAAGTTCAGTGAATGCCGAAC | 0.567
* TCATATAGGCAAACAGGTGAAAGTCCGTAAGTTA | 0.602
* GCGATTGGGGCAAAGCAGGTTACCATAAGGTTGG | 0.0851
* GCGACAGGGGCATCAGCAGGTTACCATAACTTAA | 0.297

====

Test system: THRa:RXRa (NR concentration 90 nM, RXRa partner concentration 90 nM)
protocol_summary: PBM binding z-score (relative to random genomic background probes); higher = stronger binding; sequences stand for … in GC…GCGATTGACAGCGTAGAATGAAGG
I would appreciate it if you labelled entries t when PBM binding z-score is 2 or higher, otherwise f.

* CCTACTGGGCCACGAAAGCTCATTGATTCAGTGA | f
* CCGACTGGGGCAGAGAGGTTACCATACCATCCGG | f
* ACTATTAGTTGACTTAGGGAAACCGATACGACGC | f
* CAAACTAGGTCACGAAAGGTCAAGGTCGAATGAC | t
* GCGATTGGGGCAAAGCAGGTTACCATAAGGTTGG | t
* TCTAGCAGGCCCGAGGGTCACTCAAGAGGTACGG | f
* TAGCCTCGGTCAGATCGGGCCAGTATACGCTATA | t
* TCTTGTAGATCAATAGAGGTTGAGAAAGTGCGCT | f
* GCTGCTAGGCCAACTGATGGTCAGCTAAAGCTCG | f
* GATACAGGGTCAGCCAGAGGCCAGAGTATGGAAA | t
* TATCCAGGGTCAAAGGCCAGAGTACGAATGTCGA | t

====

Test system: PXR:RXRa (NR concentration 270 nM, RXRa partner concentration 90 nM)
protocol_summary: PBM binding z-score (relative to random genomic background probes); higher = stronger binding; sequences stand for … in GC…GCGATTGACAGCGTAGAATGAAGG
quantity_measured: PBM binding z-score

* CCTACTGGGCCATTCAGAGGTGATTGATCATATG | 0.147
* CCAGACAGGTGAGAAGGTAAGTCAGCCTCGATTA | 0.0674
* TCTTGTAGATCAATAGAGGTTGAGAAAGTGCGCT | 1.01
* CCGACCGGGGCAAAGGTTACCATACTCAGTACGA | 2.84
* CCGACTGGGGGAGAAAGGTTACCATACCATCCGG | 2
* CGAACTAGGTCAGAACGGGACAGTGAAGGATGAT | 0.217
* TCTTGCAGATCAAAGGTTAAGAAAGCCGAAGCCT | 1.72
* CCTGCTAGGTCAAGGTCAGCTAATCTACAGTATG | 3.45
* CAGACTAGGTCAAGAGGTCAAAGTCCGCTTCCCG | 6.21
* TTACCAAGGTGAAAGGTTGTTGATGCACGCCTTG | 1.28
* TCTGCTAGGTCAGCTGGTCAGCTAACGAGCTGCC | 0.279
* CGTCCAAGGTCAAAGGTCAGAGAAGAGATGACGG | 7.04
* TCTATTAGTTGATTAGGCCAACCGAAACAGCGGA | 0.477
* CCGACTGGGGCAGAAAGGTTTCCATACCATCCGG | -0.755
* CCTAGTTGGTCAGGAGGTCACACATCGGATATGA | 4.1
* GATACAGGGTCAAGGCCACAGTACGCGTATTGAT | 4.14
* TCGAGTAGGCTAGGGGCATTCAGAATGGCGTCGA | -0.194
* GCTAGTTGGTGAGTAAAAGGTCACACACCGGTCG | 4.81
* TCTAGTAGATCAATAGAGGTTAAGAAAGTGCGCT | 3.18
* CCTATTAGATGACCATAAGGGCAACCGAAGCTCG | 0.624
* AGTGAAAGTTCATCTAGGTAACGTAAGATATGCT | 4.68
* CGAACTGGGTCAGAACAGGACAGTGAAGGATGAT | 1.06
* CAAACTAAGTCACGAAAGGTCAAAGTCGAATGAC | 6.08
* AATACAGGGTCACTAGGCCGGAGTAGGTACGAAT | 2.98
* ATATGTAGGTTAAGGGTCACTCAGGTTGGTTCGC | 5.09
* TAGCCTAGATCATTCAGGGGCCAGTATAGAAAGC | -0.495
* CCTACTGGGCCACCAGGTCATTGATATCAACGTT | 1.73
* CCGTACGGGTCACGAGGTTATAGCACGACGAGCG | 4.73
* CCTTACGTGTCACTCCAGGTTATAGCATCGGAGT | 1.44
* TCTTGTAGATCAAAGGATAAGAAAGCCGAAGCCT | -0.0029
* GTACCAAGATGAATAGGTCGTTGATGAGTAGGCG | -0.0822
* TCGAGTAGGTTAGGGGCATACAGAATGGCGTCGA | 0.501
* TAAGACAGGTGAAGGTAACTCAGGTACGCAGTCG | 0.257
* GCTGCTAGGTCAGATTGGTCAGCTAACGGGTACG | 0.33
* AGAATGAGGTTATTAATATCAGGGAATTGCGGTC | 1.27
* CCTACTGGGCCAAAAAGGTCATTGTTGCCGATAA | 4.29
* CCTAGCGGGCCAATCTGGGTCACTCAAGGCTTGA | 0.83
* TCTTGTAAATCAATAGAGGTTAAGAAAGTGCGCT | 2.65
* AGAACGAGCGCACGCTGAGTTGATAGCAGAGTAG | -0.74
* ATCTCTAGGTAAGGCTCAGTTCAGTGAAGAACGC | 0.855
* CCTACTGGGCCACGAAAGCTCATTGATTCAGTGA | -0.923
* TTACCAAGTTGAAGGTCGTTGATCCCTCTGTAGA | 1.59
* CCTAGTGGGCCATCAGGTCATTGATATCAACGTT | 1.62
* CAAACTAGGTCAGAACAGGACAGTGAAGGATGAT | 1.06
* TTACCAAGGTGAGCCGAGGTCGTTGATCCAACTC | 4.95
* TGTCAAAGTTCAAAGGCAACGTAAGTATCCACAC | 4.86
* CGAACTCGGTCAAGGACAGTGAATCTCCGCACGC | 0.0143
* CTCGAAGGGTCGTGCTCAGGTGAGTATACCAAAC | 1.37
* TGTCAAACTTCAAAGGTAACGTAAGTATCCACAC | 0.345
* ATACCAAGGTGGTCGTGAGGTCGTTGATACTAAC | 2.61
* CAAACTAGGTCAAGGTCATAGTCGGTTTGTGCCA | 5.2
